Biological target: T1, human LTBP3-proTGFβ1 complex (human, UniProt Q9NS15 44-1303; P01137 30-390, limits assumed)
T1 construct: Exemplary entries; also called Hu LTBP3-proTGFβ1; huLTBP3 proTGFb1
T1 sequence (Q9NS15 44-1303 limits assumed, chain 1 of 2): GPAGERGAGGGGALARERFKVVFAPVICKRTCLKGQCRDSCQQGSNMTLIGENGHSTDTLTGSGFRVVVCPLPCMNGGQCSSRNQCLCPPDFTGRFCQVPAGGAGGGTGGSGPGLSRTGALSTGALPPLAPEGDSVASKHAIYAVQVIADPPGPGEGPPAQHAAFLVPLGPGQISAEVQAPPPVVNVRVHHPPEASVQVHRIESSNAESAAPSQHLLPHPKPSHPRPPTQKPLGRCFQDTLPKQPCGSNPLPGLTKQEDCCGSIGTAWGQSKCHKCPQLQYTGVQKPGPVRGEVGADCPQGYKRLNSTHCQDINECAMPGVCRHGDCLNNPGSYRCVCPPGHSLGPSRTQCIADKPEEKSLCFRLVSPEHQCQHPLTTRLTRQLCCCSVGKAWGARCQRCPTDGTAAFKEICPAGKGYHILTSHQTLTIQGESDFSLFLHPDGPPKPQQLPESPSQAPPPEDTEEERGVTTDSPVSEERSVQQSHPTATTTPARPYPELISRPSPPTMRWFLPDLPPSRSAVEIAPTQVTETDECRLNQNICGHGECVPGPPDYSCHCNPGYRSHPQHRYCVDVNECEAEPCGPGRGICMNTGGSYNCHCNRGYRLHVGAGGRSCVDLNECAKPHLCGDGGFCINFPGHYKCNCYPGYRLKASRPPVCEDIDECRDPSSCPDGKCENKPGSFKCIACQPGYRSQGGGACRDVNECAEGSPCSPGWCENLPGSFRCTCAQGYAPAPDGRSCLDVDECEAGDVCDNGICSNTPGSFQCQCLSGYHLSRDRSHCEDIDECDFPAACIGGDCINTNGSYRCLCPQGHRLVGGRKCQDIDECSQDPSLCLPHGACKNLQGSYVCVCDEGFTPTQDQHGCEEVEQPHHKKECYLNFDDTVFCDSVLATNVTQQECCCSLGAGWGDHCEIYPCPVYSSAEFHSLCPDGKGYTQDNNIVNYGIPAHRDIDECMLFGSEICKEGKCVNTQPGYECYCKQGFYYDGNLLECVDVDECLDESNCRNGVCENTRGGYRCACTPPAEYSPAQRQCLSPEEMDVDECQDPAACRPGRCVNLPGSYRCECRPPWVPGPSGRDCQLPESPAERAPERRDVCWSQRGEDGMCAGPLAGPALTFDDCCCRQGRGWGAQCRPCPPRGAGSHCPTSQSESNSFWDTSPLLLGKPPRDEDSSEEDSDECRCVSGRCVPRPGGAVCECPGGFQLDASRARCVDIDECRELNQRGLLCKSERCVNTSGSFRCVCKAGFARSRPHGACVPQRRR
T1 sequence (P01137 30-390 limits assumed, chain 2 of 2): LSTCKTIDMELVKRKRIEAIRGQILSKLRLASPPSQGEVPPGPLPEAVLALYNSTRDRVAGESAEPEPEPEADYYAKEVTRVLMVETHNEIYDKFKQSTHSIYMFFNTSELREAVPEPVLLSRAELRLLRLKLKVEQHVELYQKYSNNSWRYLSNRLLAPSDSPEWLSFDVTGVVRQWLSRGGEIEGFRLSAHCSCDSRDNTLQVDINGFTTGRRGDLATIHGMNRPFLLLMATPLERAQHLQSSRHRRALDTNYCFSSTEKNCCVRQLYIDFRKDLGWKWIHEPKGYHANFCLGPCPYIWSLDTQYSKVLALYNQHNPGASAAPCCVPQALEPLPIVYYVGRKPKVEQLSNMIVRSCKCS
Assay: Octet BLI, IgG captured
PROPERTY: koff (s⁻¹)
The reply should contain only the number, in s⁻¹.

Task: Please give the documented koff of SR-AB44 (antibody, IgG1, V domains shown, Cycle 3, lineage SR-AB23) VH: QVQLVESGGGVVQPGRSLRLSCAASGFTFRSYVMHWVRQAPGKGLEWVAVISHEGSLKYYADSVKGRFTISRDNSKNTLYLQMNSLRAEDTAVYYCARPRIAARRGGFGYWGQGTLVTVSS VL: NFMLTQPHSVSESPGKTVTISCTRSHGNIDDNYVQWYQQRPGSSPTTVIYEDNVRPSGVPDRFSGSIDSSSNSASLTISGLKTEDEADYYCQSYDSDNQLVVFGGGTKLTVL
Result: 6e-05

Task: // Input: SR-AB64 (antibody, IgG1, V domains shown, Cycle 3, lineage SR-AB26) VH: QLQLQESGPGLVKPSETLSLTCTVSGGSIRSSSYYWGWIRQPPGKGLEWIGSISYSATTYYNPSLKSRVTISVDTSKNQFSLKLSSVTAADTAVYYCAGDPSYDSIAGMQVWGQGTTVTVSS VL: DIQMTQSPSSLSASVGDRVTITCRASQSISYYLNWYQQKPGKAPKLLIYSASSRQSGVPSRFSGSGSGTDFTLTISSLQPEDFATYYCQQGFDFPLTFGGGTKVEIK . Output its koff only.
Result: 9.18e-05

Task: Please give measured koff of the following entry: SR-AB34 (antibody, IgG1, V domains shown, Cycle 3, lineage SR-AB22) VH: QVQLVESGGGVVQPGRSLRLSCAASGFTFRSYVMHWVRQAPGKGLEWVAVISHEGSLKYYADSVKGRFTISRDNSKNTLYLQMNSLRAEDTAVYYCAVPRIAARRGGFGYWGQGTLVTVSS VL: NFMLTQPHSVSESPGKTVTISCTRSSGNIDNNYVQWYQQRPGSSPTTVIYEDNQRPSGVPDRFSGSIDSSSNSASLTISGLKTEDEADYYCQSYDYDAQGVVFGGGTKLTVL
Result: 6.68e-05
